# MEASURED_TARGET: LexA (EMSA protein) (Escherichia coli, UniProt P0A7C2 1-202, K156A)
# ASSAY_TEXT: EMSA
Assignment: determine reported pKd for the given binders.
Give bare numbers, as −log10 of the molar value.

Known pKd results, listed for orientation:
{"columns": ["BINDER", "pKd"],
 "data": [
  ["AT-repeat spacer (dsDNA) DNA 1: GATGCCTGCGGATACTGTATATATATACAGTATCAATTCTGGCT DNA 2: AGCCAGAATTGATACTGTATATATATACAGTATCCGCAGGCATC", 9.10],
  ["A-tract spacer (dsDNA) DNA 1: GATGCCTGCGGATACTGTAAAAAAAAACAGTATCAATTCTGGCT DNA 2: AGCCAGAATTGATACTGTTTTTTTTTACAGTATCCGCAGGCATC", 8.25],
  ["TGC spacer (dsDNA) DNA 1: GATGCCTGCGGATACTGTACGCGCGTACAGTATCAATTCTGGCT DNA 2: AGCCAGAATTGATACTGTACGCGCGTACAGTATCCGCAGGCATC", 8.62],
  ["AT-GC spacer (dsDNA) DNA 1: GATGCCTGCGGATACTGTATGCGCATACAGTATCAATTCTGGCT DNA 2: AGCCAGAATTGATACTGTATGCGCATACAGTATCCGCAGGCATC", 8.80]
]}

Query: # input binder: RecA SOS box (dsDNA) DNA 1: GATGCCTGCGGATACTGTATGATCATACAGTATCAATTCTGGCT DNA 2: AGCCAGAATTGATACTGTATGATCATACAGTATCCGCAGGCATC ; wanted: its pKd
Response: 8.78
